Test Name: Clearance in ICR mouse at 5 mg/kg, iv measured upto 24 hrs by LC-MS/MS analysis
Type: ADME, organism-based
Details: in vivo
Quantity Measured: clearance (mL/min/kg)
Answers are plain numbers, in mL/min/kg.

Qu. # clearance lookup, item Cc1nnc2n1-c1ccc(-c3cnn(C)c3)cc1[C@H](Nc1ccc(Cl)cc1)CC2
Ans. 25

====

Test Name: Half-life in ICR mouse at 15 mg/kg, po measured upto 24 hrs by LC-MS/MS analysis
Type: ADME, organism-based
Details: in vivo
Quantity Measured: half-life (min)
One number for each entry, in min.

Qu. GET /values?readout=half-life&item= Cc1nnc2n1-c1ccc(-c3cnn(C)c3)cc1[C@H](Nc1ccc(Cl)cc1)CC2
Ans. 57

====

System Name: Bromodomain-containing protein 2 (Homo sapiens)
Test Name: Binding affinity to human recombinant BRD2 BD2 (349 to 460 residues) by fluorescence polarization assay
Quantity Measured: pKi
Give bare numbers, as −log10 of the molar value.

A selection of reference data follows.
[[record]]
compound = "Cc1nnc2n1-c1ccc(-c3cnn(C)c3)cc1C(Nc1ccc(Cl)cc1)CC2 (centres undefined)"
quantity_measured = "pKi"
test_result = 8.04

[[record]]
compound = "CCn1cc(-c2ccc3c(c2)C(Nc2ccc(Cl)cc2)CCc2nnc(C)n2-3)cn1 (centres undefined)"
quantity_measured = "pKi"
test_result = 8.05

[[record]]
compound = "Cc1nnc2n1-c1ccc(-c3cn[nH]c3)cc1C(Nc1ccc(Cl)cc1)CC2 (centres undefined)"
quantity_measured = "pKi"
test_result = 7.72


Qu. Which pKi value belongs to Cc1nnc2n1-c1ccc(-c3cnn(C)c3)cc1[C@H](Nc1ccc(Cl)cc1)CC2 ?
Ans. 8.51

====

System Name: Bromodomain-containing protein 2 (Homo sapiens, UniProt P25440)
Sequence (P25440 whole entry, the tested form may be a part, canonical isoform): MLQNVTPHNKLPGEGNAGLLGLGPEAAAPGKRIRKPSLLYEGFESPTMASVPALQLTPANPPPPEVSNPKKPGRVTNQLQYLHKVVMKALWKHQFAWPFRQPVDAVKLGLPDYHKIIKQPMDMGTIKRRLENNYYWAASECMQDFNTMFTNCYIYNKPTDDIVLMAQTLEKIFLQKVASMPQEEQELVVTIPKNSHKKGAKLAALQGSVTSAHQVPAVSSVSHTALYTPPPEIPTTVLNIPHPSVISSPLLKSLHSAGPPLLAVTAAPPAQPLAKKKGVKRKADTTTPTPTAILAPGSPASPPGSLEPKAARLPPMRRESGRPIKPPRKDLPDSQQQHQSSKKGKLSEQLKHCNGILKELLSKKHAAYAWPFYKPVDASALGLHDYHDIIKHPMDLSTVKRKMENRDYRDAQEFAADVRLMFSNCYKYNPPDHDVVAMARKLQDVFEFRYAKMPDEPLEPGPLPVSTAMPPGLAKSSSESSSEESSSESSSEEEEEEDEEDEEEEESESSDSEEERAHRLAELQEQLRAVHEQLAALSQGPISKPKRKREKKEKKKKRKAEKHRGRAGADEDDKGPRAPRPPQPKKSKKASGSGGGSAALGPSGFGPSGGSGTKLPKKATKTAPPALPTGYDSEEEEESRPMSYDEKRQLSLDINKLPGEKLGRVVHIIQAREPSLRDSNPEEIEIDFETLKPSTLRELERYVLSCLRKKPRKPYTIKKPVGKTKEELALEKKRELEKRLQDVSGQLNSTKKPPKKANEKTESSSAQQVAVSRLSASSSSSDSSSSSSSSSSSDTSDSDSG
Test Name: Binding affinity to human partial length BRD2 BD2 isoform 1 (E348 to D455 residues) expressed in bacterial expression system by bromoscan assay
Quantity Measured: pKd
Give bare numbers, as −log10 of the molar value.

Qu. Data request, read-out pKd, for Cc1nnc2n1-c1ccc(-c3cnn(C)c3)cc1[C@H](Nc1ccc(Cl)cc1)CC2
Ans. 8.92

====

System Name: Bromodomain-containing protein 4 (Homo sapiens, UniProt O60885)
Test Name: Binding affinity to human recombinant BRD4 BD1 (44 to 168 residues) by fluorescence polarization assay
Sorting guide: entries reporting Ki beneath 700 nM go in the label 1 pile, the rest go in the label 0 pile.

Solved entries:
[[record]]
compound = "Cc1nnc2n1-c1ccc(-c3cnc(N)nc3)cc1C(Nc1ccc(Cl)cc1)CC2 (stereo not given)"
qualitative_label = "label 0"

[[record]]
compound = "CC(=O)Nc1ccc2c(c1)C(Nc1ccc(Cl)cc1)CCc1nnc(C)n1-2 (stereo not given)"
qualitative_label = "label 1"

[[record]]
compound = "Cc1nnc2n1-c1ccc(-c3ccc(N)nc3)cc1C(Nc1ccc(F)cc1)CC2 (stereo not given)"
qualitative_label = "label 0"

[[record]]
compound = "Cc1nnc2n1-c1ccc(-c3ccc(N)nc3)cc1C(Nc1cccc(CO)c1)CC2 (stereo not given)"
qualitative_label = "label 0"

[[record]]
compound = "COc1ccc2c(c1)C(Nc1ccc(Cl)cc1)CCc1nnc(C)n1-2 (stereo not given)"
qualitative_label = "label 0"


Qu. Below 700 nM on Ki? Entry Cc1nnc2n1-c1ccc(C3=CCNCC3)cc1C(Nc1ccc(Cl)cc1)CC2 (stereo not given)
Ans. label 0

Qu. Is Ki of Cc1nnc2n1-c1ccc(-c3ccc(CCN4CCN(C)CC4)cc3)cc1C(Nc1ccc(Cl)cc1)CC2 (stereo not given) strictly below 700 nM?
Ans. label 1

Qu. is_below(Ki, 700 nM) for Cc1nnc2n1-c1ccc(NS(C)(=O)=O)cc1C(Nc1ccc(Cl)cc1)CC2 (stereo not given) ?
Ans. label 0

Qu. Say whether its Ki is strictly beneath 700 nM. Entry: Cc1nnc2n1-c1ccc(-c3cnn(C)c3)cc1C(Nc1ccc(Cl)cc1)CC2 (stereo not given)
Ans. label 1

Qu. Dear reviewer, please state whether Cc1nnc2n1-c1ccc(-c3cnn(C)c3)cc1[C@H](Nc1ccc(Cl)cc1)CC2 has Ki strictly beneath 700 nM.
Ans. label 1
